Data credit: paper PMC6471705

# Experimental Protocol: DPPH radical scavenging assay
# Recorded Conditions: Table 3, molar units
pIC50: −log10 of the molar value.
Decide by pIC50: equal to or exceeding 4 means Criterion met, less means Criterion not met.

Would you please look over these solved cases?
>>> df
                                   molecule     classification
0  Oc1cc(O)c2c(c1)O[C@H](c1ccc(O)c(O)c1)[C@@H](O)C2 [FEQ-7, (+)-catechin]      Criterion met
1  O=C1O[C@H]([C@@H](O)CO)C(O)=C1O [Ac, ascorbic acid, reference compound]  Criterion not met
2          CCCCCCOC(=O)/C=C/c1ccc(O)c(OC)c1      Criterion met

Ask: Please tell me: is the molecule Oc1cc(O)c2c(c1)O[C@H](c1ccc(O)c(O)c1)[C@H](O)C2 [FEQ-8, (−)-epicatechin] at or over 4 in terms of pIC50?
Result: Criterion met

Ask: Please tell me: is the molecule O=C(O)c1cc(O)c(O)c(O)c1 at or over 4 in terms of pIC50?
Result: Criterion met

Ask: Please tell me: is the molecule O=c1c(O)c(-c2ccc(O)cc2)oc2cc(O)cc(O)c12 at or over 4 in terms of pIC50?
Result: Criterion met

Ask: Please tell me: is the molecule COc1cc(O)c2c(=O)c(OC)c(-c3ccc(O)c(OC)c3)oc2c1 at or over 4 in terms of pIC50?
Result: Criterion not met
